# Tested on: HepG2
# Assay Text: Antiproliferative activity against human HepG2 cells assessed cell survival after 24 hrs by alamarBlue assay
# Type: functional, cell-based
# Test Context: Homo sapiens, HepG2, 24 h; read-out: IC50
Readout Kind: IC50 (nM)

* O=C1Nc2ccccc2/C1=C1/Nc2ccccc2/C1=N\O | 15000
* O=C1Nc2ccccc2/C1=C1/Nc2ccccc2/C1=N\OCC1CO1 (stereo not drawn) | 1700
* O=C1Nc2ccccc2/C1=C1/Nc2ccccc2/C1=N\OCC(O)CO (stereo not drawn) | 2100

Sourced from ChEMBL document CHEMBL3399924
